# Test target: KRAS G12C (Homo sapiens, UniProt P01116, G12C)
# Sequence (P01116 1-188 isoform P01116-2 G12C): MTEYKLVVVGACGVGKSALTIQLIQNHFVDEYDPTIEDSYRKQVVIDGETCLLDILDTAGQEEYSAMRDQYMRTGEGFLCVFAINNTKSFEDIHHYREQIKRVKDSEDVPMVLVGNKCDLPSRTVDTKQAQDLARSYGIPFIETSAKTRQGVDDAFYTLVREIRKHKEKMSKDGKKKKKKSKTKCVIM
# Assay method text: phospho-ERK HTRF assay in Ras Initiative (RI) KRAS G12C cells
# Setup conditions: phospho-ERK1/2 HTRF, 11-point dose response from 2,500 nM, treatment for either 4 hours or 16 hours, read-out: pERK (RI)
Measurement type: IC50

Lookup: Would you mind telling me what IC50 value was observed for C=CC(=O)N1[C@H](C)CN(c2nc(=O)n3c4c(c(-c5ccc(F)cc5)c(C(F)(F)F)cc24)SC[C@@H](c2ccncc2)C3)C[C@@H]1C [Example 113] ?
Found: 0.5 to 2 nM

Lookup: Would you mind telling me what IC50 value was observed for C=CC(=O)N1[C@H](C)CN(c2nc(=O)n3c4c(c(-c5ccc(F)cc5)c(C(F)(F)F)cc24)SCC(c2ccc(F)cc2)C3)C[C@@H]1C (some centres unmarked) [Example 116] ?
Found: 2 to 20 nM

Lookup: Would you mind telling me what IC50 value was observed for C=CC(=O)N1[C@H](C)CN(c2nc(=O)n3c4c(c(-c5ccc(F)cc5)c(C(F)(F)F)cc24)SC[C@@H](c2ccccn2)C3)C[C@@H]1C [Example 106] ?
Found: 0.5 to 2 nM

Lookup: Would you mind telling me what IC50 value was observed for C=CC(=O)N1[C@H](C)CN(c2nc(=O)n3c4c(c(-c5cc(Cl)c(F)cc5F)c(C(F)(F)F)cc24)SC[C@@H](c2ccncc2)C3)C[C@@H]1C (atropisomer, axis not shown) [Example 100B] ?
Found: 0.5 to 2 nM

Further cases:
Lookup: Would you mind telling me what IC50 value was observed for C=CC(=O)N1[C@H](C)CN(c2nc(=O)n3c4c(c(-c5cc(Br)c(F)cc5F)c(C(F)(F)F)cc24)SC[C@@H](c2ccncc2)C3)C[C@@H]1C [Example 102] ?
Found: 0.5 to 2 nM
